System: HCT116
test description: MTS cell viability assay, HCT116
Type: cell-based
condition description: Homo sapiens, HCT-116; repeated in docking table, unit inferred; read-out: IC50 HCT116
Procedure: The newly synthesized compounds were subjected to assessment for their potential to inhibit the proliferation of various cancer cell lines including colorectal carcinoma (HCT116), ovarian cancer (OVCAR 10), and human metastatic melanoma (1205Lu), and non-cancerous fetal human cells (FHC). […] The cell viability assay was performed as described earlier[27] […] The IC50 values were calculated using non-linear regression (curve fit).
pIC50: −log10 of the molar value.
Measured pIC50, listed per entry.

compound	system name	pIC50
O=c1[nH]cc(F)c(=O)[nH]1 [Compound 5-FU, 5-fluorouracil, reference compound]	HCT116	4.65
O=C1N(Cc2ccccc2)c2c(Br)cc(Br)cc2C1(O)CN1CCOCC1 (stereo not drawn) [Compound 4j]	HCT116	5.02
O=C1N(Cc2ccccc2)c2c(Br)cc(Br)cc2C1(O)CN1CCCCC1 (stereo not drawn) [Compound 4k]	HCT116	3.96

* * *

Measured melting point, listed per entry.

compound	melting point
O=C1N(Cc2ccccc2)c2ccc(Cl)cc2C1(O)CN1CCCC1 (centres unmarked)	121 to 124 °C
O=C1N(Cc2ccccc2)c2ccc(Br)cc2C1(O)CN1CCCC1 (centres unmarked)	144 to 146 °C
O=C1N(Cc2ccccc2)c2ccc(Br)cc2C1(O)CN1CCCCC1 (centres unmarked)	189 to 191 °C
O=C1N(Cc2ccccc2)c2c(Br)cc(Br)cc2C1(O)CN1CCCCC1 (centres unmarked)	170 to 172 °C
O=C1Nc2ccccc2C1(O)CN1CCCCC1 (centres unmarked)	154 to 156 °C

* * *

System: FHC
test description: MTS cell viability assay, non-cancerous FHC
Format: cell-based
condition description: FHC, 48 h treatment, non-cancerous fetal human cells, read-out: IC50 (μM) ± SD FHC
Measured IC50, listed per entry.

molecule	IC50
O=C1N(Cc2ccccc2)c2ccc(Br)cc2C1(O)CN1CCCC1 (stereo not drawn) [Compound 4f]	81.3 µM
O=C1N(Cc2ccccc2)c2ccc(Br)cc2C1(O)CN1CCCCC1 (stereo not drawn) [Compound 4e]	88.3 µM
O=C1N(Cc2ccccc2)c2c(Br)cc(Br)cc2C1(O)CN1CCCCC1 (stereo not drawn) [Compound 4k]	88.6 µM
